Where do these numbers come from? They come from patent US9125913B2.

system: GST-Bcl-2; assay: TR-FRET binding assay, Bcl-2; conditions: TR-FRET Ki values
Everything with Binding selectivity ratio (Bcl-XL Ki/Bcl-2 Ki) lower than 100 is false; everything else, including exactly 100, is true.

Compound: CC1(C)CCC(CN2CCN(c3ccc(C(=O)NS(=O)(=O)c4ccc(OCC5(C)COC5)c([N+](=O)[O-])c4)c(Oc4ccc5[nH]ccc5c4)c3)CC2)=C(c2ccc(Cl)cc2)C1 [EXAMPLE 286]
Measured on: GST-Bcl-2
Class label: true

Compound: CC1(C)CCC(CN2CCN(c3ccc(C(=O)NS(=O)(=O)c4ccc(NC[C@H]5CC[C@H](O)CC5)c([N+](=O)[O-])c4)c(Oc4ccc5[nH]ccc5c4)c3)CC2)=C(c2ccc(Cl)cc2)C1 [EXAMPLE 310]
Measured on: GST-Bcl-2
Class label: true

Compound: CC1(C)CCC(CN2CCN(c3ccc(C(=O)NS(=O)(=O)c4ccc(NCCCN5CCOCC5)c(S(=O)(=O)C(F)(F)F)c4)c(Oc4cccc5[nH]ccc45)c3)CC2)=C(c2ccc(Cl)cc2)C1 [EXAMPLE 349]
Measured on: GST-Bcl-2
Class label: false

Compound: CN1CCC(CNc2ccc(S(=O)(=O)NC(=O)c3ccc(N4CCN(CC5=C(c6ccc(Cl)cc6)CC(C)(C)CC5)CC4)cc3Oc3ccc4[nH]ccc4c3)cc2[N+](=O)[O-])CC1 [Example 104]
Measured on: GST-Bcl-2
Class label: true

Compound: CC1(C)CCC(CN2CCN(c3ccc(C(=O)NS(=O)(=O)c4ccc(OCC5COCCO5)c([N+](=O)[O-])c4)c(Oc4ccc5[nH]ccc5c4)c3)CC2)=C(c2ccc(Cl)cc2)C1 (centres unmarked) [EXAMPLE 297]
Measured on: GST-Bcl-2
Class label: true

Compound: CC1(C)CCC(CN2CCN(c3ccc(C(=O)NS(=O)(=O)c4ccc(NCc5cncs5)c([N+](=O)[O-])c4)c(Oc4ccc5[nH]ccc5c4)c3)CC2)=C(c2ccc(Cl)cc2)C1 [EXAMPLE 288]
Measured on: GST-Bcl-2
Class label: true

Compound: CC1(C)CCC(CN2CCN(c3ccc(C(=O)NS(=O)(=O)c4cnc(OCC5CCOCC5)c(C#N)c4)c(Oc4cccc5[nH]ccc45)c3)CC2)=C(c2ccc(Cl)cc2)C1 [EXAMPLE 386]
Measured on: GST-Bcl-2
Class label: true

Compound: CC1(C)CCC(CN2CCN(c3ccc(C(=O)NS(=O)(=O)c4ccc(NCC5CCOCC5)c([N+](=O)[O-])c4)c(Oc4ccc5[nH]ccc5c4)c3)CC2CO)=C(c2ccc(Cl)cc2)C1 (centres unmarked) [EXAMPLE 236]
Measured on: GST-Bcl-2
Class label: true

Compound: CC1(C)CCC(CN2CCN(c3ccc(C(=O)NS(=O)(=O)c4cnc(OCC5CCOCC5)c(Br)c4)c(Oc4ccc5[nH]ccc5c4)c3)CC2)=C(c2ccc(Cl)cc2)C1 [EXAMPLE 329]
Measured on: GST-Bcl-2
Class label: true

Compound: CN(C)CCNc1ccc(S(=O)(=O)NC(=O)c2ccc(N3CCN(Cc4ccccc4-c4ccc(Cl)cc4)CC3)cc2Oc2ccccc2)cc1[N+](=O)[O-] [Example 153]
Measured on: GST-Bcl-2
Class label: true

Compound: CN(C)CCOc1ccc(-c2ccc(Cl)cc2)c(CN2CCN(c3ccc(C(=O)NS(=O)(=O)c4ccc(NCCCN5CCCC5)c([N+](=O)[O-])c4)c(Oc4ccccc4)c3)CC2)c1 [Example 121]
Measured on: GST-Bcl-2
Class label: true

Compound: CC1(C)CCC(CN2CCN(c3ccc(C(=O)NS(=O)(=O)c4ccc(NCCCN5CCOCC5)c([N+](=O)[O-])c4)c(Oc4cccc5[nH]ccc45)c3)CC2)=C(c2ccc(Cl)cc2)C1 [Example 55]
Measured on: GST-Bcl-2
Class label: true

Compound: CN1CCC(Nc2ccc(S(=O)(=O)NC(=O)c3ccc(N4CCN(CC5=C(c6ccc(Cl)cc6)CC(C)(C)CC5)CC4)cc3Oc3ccc4[nH]ccc4c3)cc2[N+](=O)[O-])CC1 [Example 98]
Measured on: GST-Bcl-2
Class label: true

Compound: CC1(C)CCC(CN2CCN(c3ccc(C(=O)NS(=O)(=O)c4ccc(NC5CCN(CCCC(F)(F)F)CC5)c([N+](=O)[O-])c4)c(Oc4ccc5[nH]ccc5c4)c3)CC2)=C(c2ccc(Cl)cc2)C1 [EXAMPLE 216]
Measured on: GST-Bcl-2
Class label: true

Compound: CC1(C)CCC(CN2CCN(c3ccc(C(=O)NS(=O)(=O)c4ccc(NCC5CCOCC5)c(C#N)c4)c(Oc4cccc5[nH]ccc45)c3)CC2)=C(c2ccc(Cl)cc2)C1 [EXAMPLE 366]
Measured on: GST-Bcl-2
Class label: true

Compound: CN(C)CCCNc1ccc(S(=O)(=O)NC(=O)c2ccc(N3CCN(Cc4ccccc4-c4ccc(Cl)cc4)CC3)cc2Oc2ccccc2)cc1C(F)(F)F [Example 92]
Measured on: GST-Bcl-2
Class label: false

Compound: CN(C)CCCOc1ccc(S(=O)(=O)NC(=O)c2ccc(N3CCN(Cc4ccccc4-c4ccc(Cl)cc4)CC3)cc2Oc2ccccc2)cc1[N+](=O)[O-] [Example 94]
Measured on: GST-Bcl-2
Class label: false

Compound: CN1CCC(CNc2ccc(S(=O)(=O)NC(=O)c3ccc(N4CCN(CC5=C(c6ccc(Cl)cc6)CC(C)(C)CC5)CC4)cc3Oc3ccc4[nH]ccc4c3)cc2[N+](=O)[O-])(N(C)C)CC1 [Example 109]
Measured on: GST-Bcl-2
Class label: true

Compound: CC1(C)CCC(CN2CCN(c3ccc(C(=O)NS(=O)(=O)c4ccc(NC5CCN(C6CCOCC6)CC5)c([N+](=O)[O-])c4)c(Oc4cccnc4)c3)CC2)=C(c2ccc(Cl)cc2)C1 [EXAMPLE 398]
Measured on: GST-Bcl-2
Class label: false

###

system: GST-Bcl-2; assay: TR-FRET binding assay, Bcl-2; details: TR-FRET Ki values
Parameter measured: Binding selectivity ratio (Bcl-XL Ki/Bcl-2 Ki)

Compound: O=C(NS(=O)(=O)c1ccc(NCC2CCOCC2)c([N+](=O)[O-])c1)c1ccc(N2CCN(Cc3cc(OCCCN4CCCCC4)ccc3-c3ccc(Cl)cc3)CC2)cc1Oc1ccccc1 [Example 114]
Result operator: =
Experimental result: 149.2
//
Compound: CN(C)CCCNc1ccc(S(=O)(=O)NC(=O)c2ccc(N3CCN(Cc4ccccc4-c4ccc(Cl)cc4)CC3)cc2Oc2cccc3[nH]ccc23)cc1[N+](=O)[O-] [Example 46]
Result operator: =
Experimental result: 119.2
//
Compound: CN1CCN(c2ccc(S(=O)(=O)NC(=O)c3ccc(N4CCN(CC5=C(c6ccc(Cl)cc6)CC(C)(C)CC5)CC4)cc3Oc3ccc4[nH]ccc4c3)cc2[N+](=O)[O-])CC1 [Example 107]
Result operator: =
Experimental result: 62.5
//
Compound: CC1(C)CCC(CN2CCN(c3ccc(C(=O)NS(=O)(=O)c4ccc(NC(CO)C5CCOCC5)c([N+](=O)[O-])c4)c(Oc4ccc5[nH]ccc5c4)c3)CC2)=C(c2ccc(Cl)cc2)C1 (stereo not shown) [EXAMPLE 242]
Result operator: >
Experimental result: 367.6
//
Compound: CC1(C)CCC(CN2CCN(c3ccc(C(=O)NS(=O)(=O)c4ccc(NC5CCS(=O)(=O)C5)c([N+](=O)[O-])c4)c(Oc4cccc5[nH]ccc45)c3)CC2)=C(c2ccc(Cl)cc2)C1 (stereo not shown) [EXAMPLE 299]
Result operator: =
Experimental result: 577.7
//
Compound: CN1CCC(Nc2ccc(S(=O)(=O)NC(=O)c3ccc(N4CCN(CC5=C(c6ccc(Cl)cc6)CCCC5)CC4)cc3Oc3cccc4[nH]ccc34)cc2[N+](=O)[O-])CC1 [Example 149]
Result operator: >
Experimental result: 2490.6
//
Compound: CN(C)CC(=O)N1CCO[C@@H](COc2ncc(S(=O)(=O)NC(=O)c3ccc(N4CCN(CC5=C(c6ccc(Cl)cc6)CC(C)(C)CC5)CC4)cc3Oc3cccc4[nH]cnc34)cc2Cl)C1 [EXAMPLE 424]
Result operator: =
Experimental result: 782.52
//
Compound: O=C(NS(=O)(=O)c1ccc(NCCCN2CCOCC2)c([N+](=O)[O-])c1)c1ccc(N2CCN(Cc3ccccc3-c3ccc(Cl)cc3)CC2)cc1Oc1cccc2[nH]ccc12 [Example 58]
Result operator: =
Experimental result: 265.5
//
Compound: CN(C)CC(=O)N1CC[C@@H](Nc2ccc(S(=O)(=O)NC(=O)c3ccc(N4CCN(CC5=C(c6ccc(Cl)cc6)CC(C)(C)CC5)CC4)cc3Oc3cccc4[nH]cnc34)cc2[N+](=O)[O-])C1 [EXAMPLE 430]
Result operator: =
Experimental result: 99.767
//
Compound: CC1(C)CCC(CN2CCN(c3ccc(C(=O)NS(=O)(=O)c4ccc(NCC5(O)CCCCC5)c([N+](=O)[O-])c4)c(Oc4ccc5[nH]ccc5c4)c3)CC2)=C(c2ccc(Cl)cc2)C1 [EXAMPLE 238]
Result operator: >
Experimental result: 1534.3
